Test system: HT-29 human colon cancer cells
ASSAY_PROCEDURE: In vitro biological activity assay: inhibition of TNFα/SmacM/Z_VAD FMK-induced programmed necrosis, CellTiter-Glo viability
Assay type: cell-based
CONDITION_DETAILS: HT-29 cells, necrosis induced with TNF-α 100 ng/mL, SmacM 100 nM, Z_VAD-FMK 10 μM, overnight, cell viability by chemiluminescence
pEC50: −log10 of the molar value.
Provide the reported pEC50 of each item.

Could you share which pEC50 value was measured for C(#Cc1cnc2cccnn12)c1cncc(-n2cc3c(n2)C(c2ccccc2)CC3)n1 (centres unmarked) [Compound 26] ? ≥ 7.00

What value of measured pEC50 is listed for C(#Cc1cnc2cccnn12)c1ccnc(-n2cc3c(n2)C(c2ccccc2)CC3)c1 (centres unmarked) [Compound 27] ? ≥ 7.00

Fill in the blank: the reported pEC50 of Nc1ccc(C#Cc2cncc(-n3cc4c(n3)C(c3ccccc3)CC4)c2)nn1 (centres unmarked) [Compound 17] is ____. ≥ 7.00

Which pEC50 is listed for C(#Cc1cnc2cccnn12)c1cc(-n2cc3c(n2)C(c2ccccc2)CC3)ncn1 (centres unmarked) [Compound 8] ? 6.00 to 7.00

So what does the record say about pEC50 for Nc1ccc(C#Cc2cncc(-n3cc4c(n3)C(c3ccccc3)CC4)c2)cn1 (centres unmarked) [Compound 16] ? ≥ 7.00

I have this compound here, Cn1c(-n2nc3c(n2)C(c2ccccc2)CC3)cc(C#Cc2cnc(N)nc2)cc1=O (centres unmarked) [Compound 57] , and I need its recorded pEC50. ≥ 7.00

Reported pEC50 for Nc1ncc(C#Cc2cc(-n3cc4c(n3)C(c3ccccc3)CC4)ncn2)cn1 (centres unmarked) [Compound 9] : what is it? 6.00 to 7.00

Reported pEC50, compound Cn1nccc1C#Cc1cccc(-n2cc3c(n2)C(c2ccccc2)CC3)c1 (centres unmarked) [Compound 23] : ____ ≥ 7.00

====

ASSAY_PROCEDURE: Rapid brain distribution assay (LC-MS/MS, brain tissue/plasma ratio)
Assay type: in vivo
CONDITION_DETAILS: mouse, ip, CD1 mice, intraperitoneal, grouped compounds, brain tissue and plasma taken one hour after administration, read-out: B/P
ASSAY_ENDPOINT: Kp at 1 h
Answer field: number only, no words.

GET /values?readout=Kp at 1 h&item= C(#Cc1cnc2cccnn12)c1ccnc(-n2cc3c(n2)C(c2ccccc2)CC3)n1 (stereo not drawn) [Compound 7] 0.12

For Nc1ncc(C#Cc2cncc(-n3nc4c(n3)[C@H](c3ccccc3)CC4)c2)cn1 [Compound 55] , what is its reported Kp at 1 h? 2.61

Please give the measured Kp at 1 h for this molecule: Cn1c(-n2nc3c(n2)C(C2CCCCC2)CC3)cc(C#Cc2cnc(N)nc2)cc1=O (stereo not drawn) [Compound 65] 1.12

Using the record for C(#Cc1cnc2cccnn12)c1cccc(-n2cc3c(n2)C(c2ccccc2)CC3)c1 (stereo not drawn) [Compound 5] , report its Kp at 1 h. 0.75

Record request: Kp at 1 h value, item Nc1ncc(C#Cc2cncc(-n3nc4c(n3)C(c3cc(F)cc(F)c3)CC4)c2)cn1 (stereo not drawn) [Compound 63] 3.77

Fill in the blank: the reported Kp at 1 h of Nc1ncc(C#CC2CCC(n3cc4c(n3)C(c3ccccc3)CC4)C2)cn1 (stereo not drawn) [Compound 3] is ____. 3.96

====

I'd appreciate it if you could supply pEC50 values for the items below.
System: HT-29 human colon cancer cells
ASSAY_PROCEDURE: In vitro biological activity assay: inhibition of TNFα/SmacM/Z_VAD FMK-induced programmed necrosis, CellTiter-Glo viability
Assay type: cell-based
CONDITION_DETAILS: HT-29 cells, necrosis induced with TNF-α 100 ng/mL, SmacM 100 nM, Z_VAD-FMK 10 μM, overnight, cell viability by chemiluminescence
pEC50: −log10 of the molar value.

What pEC50 appears in the records for this compound with HT-29 human colon cancer cells? Cc1c(C#Cc2cnc(N)nc2)cncc1-n1cc2c(n1)C(c1ccccc1)CC2 (stereo not drawn) [Compound 43] ≥ 7.00

Form entry - test system: HT-29 human colon cancer cells; read-out: pEC50; compound: Nc1ncc(C#Cc2cncc(-n3nc4n(c3=O)CCC4c3ccccc3)c2)cn1 (stereo not drawn) [Compound 52] ≥ 7.00

Record lookup: for HT-29 human colon cancer cells, what pEC50 belongs to NC(=O)c1ncc(C#Cc2cncc(-n3cc4c(n3)C(c3ccccc3)CC4)c2)cn1 (stereo not drawn) [Compound 10] ? < 6.00

Item: Cn1cc(C#Cc2cncc(-n3cc4c(n3)[C@H](c3ccccc3)CC4)c2)cnc1=O [Compound 21] Test system: HT-29 human colon cancer cells Read-out: pEC50 Value: ? 6.00 to 7.00

Kindly state the measured pEC50 obtained for C(#Cc1cnc2cccnn12)c1cncc(-n2cc3c(n2)C(c2ccccc2)CC3)c1 (stereo not drawn) [Compound 6] with HT-29 human colon cancer cells. ≥ 7.00

Tell me reported pEC50 for COc1ccc(C#Cc2cccc(-n3cc4c(n3)C(c3ccccc3)CC4)c2)cn1 (stereo not drawn) [Compound 33] , tested with HT-29 human colon cancer cells. ≥ 7.00

Which measured pEC50 belongs to Oc1cnc(C#Cc2cncc(-n3cc4c(n3)C(c3ccccc3)CC4)c2)cn1 (stereo not drawn) [Compound 12] , tested on HT-29 human colon cancer cells? < 6.00

State its pEC50 on HT-29 human colon cancer cells: Cc1ncc(C#Cc2cnc(N)nc2)cc1-n1nc2c(n1)C(C1CCCCC1)CC2 (stereo not drawn) [Compound 64] ≥ 7.00

Observed pEC50 on HT-29 human colon cancer cells for Cc1ncc(C#Cc2cccc(-n3cc4c(n3)C(c3ccccc3)CC4)c2)n1C (stereo not drawn) [Compound 24] , please. ≥ 7.00

Hi! What's the reported pEC50 for Nc1ncc(C#Cc2cncc(-n3cc4c(n3)C(c3ccccc3)OC4)c2)cn1 (stereo not drawn) [Compound 51] on HT-29 human colon cancer cells? ≥ 7.00

Given the entry Nc1ncc(C#Cc2cncc(-n3cc4c(n3)[C@H](c3ccccc3)CC4)c2)s1 [Compound 31] , what pEC50 was observed with HT-29 human colon cancer cells? ≥ 7.00

Given the entry C(#Cc1cnc2cccnn12)c1cccc(-n2cc3c(n2)C(c2ccccc2)CC3)n1 (stereo not drawn) [Compound 1] , what pEC50 was observed with HT-29 human colon cancer cells? ≥ 7.00

Request - read-out pEC50 | tested on HT-29 human colon cancer cells | compound Nc1ncc(C#Cc2cncc(-n3cc4c(n3)C(c3ccccc3)CC4)c2)cn1 (stereo not drawn) [Compound 38] ≥ 7.00

Request: pEC50, test system HT-29 human colon cancer cells, entry Cn1c(-n2nc3c(n2)C(c2cccnc2)CC3)cc(C#Cc2cnc(N)nc2)cc1=O (stereo not drawn) [Compound 62] ≥ 7.00

Observed pEC50 on HT-29 human colon cancer cells for Nc1ncc(C#Cc2cncc(-n3nc4c(n3)C(c3ccccc3)CC4)c2)cn1 (stereo not drawn) [Compound 54] , please. ≥ 7.00

Lookup: pEC50 / HT-29 human colon cancer cells / Nc1ncc(C#Cc2cncc(-n3cc4c(n3)[C@@H](c3cccc(F)c3)CC4)c2)cn1 [Compound 47] ≥ 7.00

Test system HT-29 human colon cancer cells; read-out pEC50; what value for Oc1ccc(C#Cc2cncc(-n3cc4c(n3)C(c3ccccc3)CC4)c2)nn1 (stereo not drawn) [Compound 11] ? ≥ 7.00

Quick check: pEC50 on HT-29 human colon cancer cells, item Cc1cnn(C)c1C#Cc1cccc(-n2cc3c(n2)C(c2ccccc2)CC3)c1 (stereo not drawn) [Compound 22] ? ≥ 7.00

Query for HT-29 human colon cancer cells: what pEC50 does the record show for C(#Cc1cnc2cccnn12)c1ccnc(-n2cc3c(n2)C(c2ccccc2)CC3)n1 (stereo not drawn) [Compound 7] ? 6.00 to 7.00

Param readout= pEC50; system= HT-29 human colon cancer cells; entry= Cc1ccc(C#Cc2cccc(-n3cc4c(n3)C(c3ccccc3)CC4)c2)cn1 (stereo not drawn) [Compound 35] ; returns value. ≥ 7.00

Request body: readout pEC50, system HT-29 human colon cancer cells, query Nc1ncc(C#Cc2cncc(-n3cc4c(n3)C(c3cncc(F)c3)CC4)c2)cn1 (stereo not drawn) [Compound 19] . Return the value. ≥ 7.00

Param readout = pEC50; param system = HT-29 human colon cancer cells; param query = Clc1ncc(C#Cc2cncc(-n3cc4c(n3)C(c3ccccc3)CC4)c2)cn1 (stereo not drawn) [Compound 41] ; response: value 6.00 to 7.00

Request - read-out pEC50 | tested on HT-29 human colon cancer cells | compound Nc1cnc(C#Cc2cncc(-n3cc4c(n3)C(c3ccccc3)CC4)c2)cn1 (stereo not drawn) [Compound 18] ≥ 7.00

Query the reported pEC50 for HT-29 human colon cancer cells; item: Nc1ncc(C#Cc2c[nH]c(=O)c(-n3nc4c(n3)C(c3ccccc3)CC4)c2)cn1 (stereo not drawn) [Compound 60] < 6.00

Give pEC50 (HT-29 human colon cancer cells) of the following compound: Nc1ncc(C#Cc2cncc(-n3cc4c(n3)C(c3cc(F)cc(F)c3)CC4)c2)cn1 (stereo not drawn) [Compound 48] ≥ 7.00

Request body: readout pEC50, system HT-29 human colon cancer cells, query C(#Cc1cnc2cccnn12)c1cccc(-n2cc3c(n2)C(c2ccccc2)CC3)c1 (stereo not drawn) [Compound 5] . Return the value. ≥ 7.00

HT-29 human colon cancer cells / pEC50 / Nc1ncc(C#Cc2ccnc(-n3cc4c(n3)C(c3ccccc3)CC4)c2)cn1 (stereo not drawn) [Compound 28] : value? ≥ 7.00

What is its pEC50 for HT-29 human colon cancer cells? Entry: Nc1ncc(C#Cc2cncc(-n3nc4c(n3)[C@@H](c3ccccc3)CC4)c2)cn1 [Compound 56] < 6.00

Given the entry Nc1ncc(C#Cc2cncc(-n3cc4c(n3)[C@H](c3cccc(F)c3)CC4)c2)cn1 [Compound 46] , what pEC50 was observed with HT-29 human colon cancer cells? ≥ 7.00

Give pEC50 (HT-29 human colon cancer cells) of the following compound: Cc1c2c(nn1-c1cncc(C#Cc3cnc(N)nc3)c1)C(c1ccccc1)CC2 (stereo not drawn) [Compound 40] ≥ 7.00
